biological target: CSF-1R (Homo sapiens); construct: purchased Invitrogen PV3249 (lot 662393N); assay: Caliper biochemical assay, CSF-1R; conditions: Table 6
Sequence (P07333 20-972): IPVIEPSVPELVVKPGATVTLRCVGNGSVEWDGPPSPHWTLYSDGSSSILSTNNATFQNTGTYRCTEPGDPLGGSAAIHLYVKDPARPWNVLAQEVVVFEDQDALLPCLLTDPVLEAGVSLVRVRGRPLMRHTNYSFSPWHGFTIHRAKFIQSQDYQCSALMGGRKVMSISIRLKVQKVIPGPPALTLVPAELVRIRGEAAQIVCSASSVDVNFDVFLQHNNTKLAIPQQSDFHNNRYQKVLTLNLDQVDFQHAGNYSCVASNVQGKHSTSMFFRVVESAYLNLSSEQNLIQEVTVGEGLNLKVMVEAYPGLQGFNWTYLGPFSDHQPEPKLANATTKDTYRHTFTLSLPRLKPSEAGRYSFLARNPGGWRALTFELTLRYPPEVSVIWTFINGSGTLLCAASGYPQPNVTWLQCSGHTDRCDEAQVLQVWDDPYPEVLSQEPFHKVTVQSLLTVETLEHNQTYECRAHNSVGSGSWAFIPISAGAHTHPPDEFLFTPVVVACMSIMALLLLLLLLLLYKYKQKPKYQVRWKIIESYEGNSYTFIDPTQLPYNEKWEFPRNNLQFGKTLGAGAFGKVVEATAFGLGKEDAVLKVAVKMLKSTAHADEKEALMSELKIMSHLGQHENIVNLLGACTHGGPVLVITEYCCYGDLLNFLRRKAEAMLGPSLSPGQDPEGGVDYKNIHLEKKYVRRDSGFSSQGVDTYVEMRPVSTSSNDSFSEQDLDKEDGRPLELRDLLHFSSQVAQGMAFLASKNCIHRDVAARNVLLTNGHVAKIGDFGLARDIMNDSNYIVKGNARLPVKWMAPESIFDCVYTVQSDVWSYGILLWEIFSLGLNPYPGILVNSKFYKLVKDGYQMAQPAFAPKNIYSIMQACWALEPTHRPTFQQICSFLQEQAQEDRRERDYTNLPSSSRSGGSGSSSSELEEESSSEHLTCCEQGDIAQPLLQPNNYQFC
pIC50: −log10 of the molar value.
REPORTED_ENDPOINT: pIC50

O=C(Nc1cc(-c2noc([C@H]3C[C@@H]3F)n2)ccc1Br)c1cnc2ccccn12	≥ 7.30
Cc1ccc(-c2noc(C(C)NS(C)(=O)=O)n2)cc1NC(=O)c1cnc2ccccn12 (single isomer, unassigned) [Compound I-238]	6.30 to 7.30
Cc1ccc(-c2noc([C@@H]3CCN3C3CC3)n2)cc1NC(=O)c1cnc2ccccn12 (racemic)	6.30 to 7.30

Query: # query: pIC50 of entry Cc1ccc(-c2noc([C@H]3C[C@@H]3F)n2)cc1NC(=O)c1cnc2cc(N3CCC3)ccn12
Response: ≥ 7.30

Query: # query: pIC50 of entry COC(=O)N1CC(c2nc(-c3ccc(C)c(NC(=O)c4cnc5cc(OCC(C)(C)O)ccn45)c3)no2)C1
Response: ≥ 7.30

Query: # query: pIC50 of entry Cc1ccc(-c2noc([C@@H]3CCCO3)n2)cc1NC(=O)c1cnc2ccccn12
Response: 6.30 to 7.30

Query: # query: pIC50 of entry COC(=O)N1CC(c2nc(-c3ccc(C)c(NC(=O)c4cnc5cc(COCC(F)(F)F)ccn45)c3)no2)C1
Response: 6.30 to 7.30
